Target: recombinant human PI3Kα (6-His(p110-p85α)) (Homo sapiens (Human), UniProt P42336)
Sequence (P42336 whole entry): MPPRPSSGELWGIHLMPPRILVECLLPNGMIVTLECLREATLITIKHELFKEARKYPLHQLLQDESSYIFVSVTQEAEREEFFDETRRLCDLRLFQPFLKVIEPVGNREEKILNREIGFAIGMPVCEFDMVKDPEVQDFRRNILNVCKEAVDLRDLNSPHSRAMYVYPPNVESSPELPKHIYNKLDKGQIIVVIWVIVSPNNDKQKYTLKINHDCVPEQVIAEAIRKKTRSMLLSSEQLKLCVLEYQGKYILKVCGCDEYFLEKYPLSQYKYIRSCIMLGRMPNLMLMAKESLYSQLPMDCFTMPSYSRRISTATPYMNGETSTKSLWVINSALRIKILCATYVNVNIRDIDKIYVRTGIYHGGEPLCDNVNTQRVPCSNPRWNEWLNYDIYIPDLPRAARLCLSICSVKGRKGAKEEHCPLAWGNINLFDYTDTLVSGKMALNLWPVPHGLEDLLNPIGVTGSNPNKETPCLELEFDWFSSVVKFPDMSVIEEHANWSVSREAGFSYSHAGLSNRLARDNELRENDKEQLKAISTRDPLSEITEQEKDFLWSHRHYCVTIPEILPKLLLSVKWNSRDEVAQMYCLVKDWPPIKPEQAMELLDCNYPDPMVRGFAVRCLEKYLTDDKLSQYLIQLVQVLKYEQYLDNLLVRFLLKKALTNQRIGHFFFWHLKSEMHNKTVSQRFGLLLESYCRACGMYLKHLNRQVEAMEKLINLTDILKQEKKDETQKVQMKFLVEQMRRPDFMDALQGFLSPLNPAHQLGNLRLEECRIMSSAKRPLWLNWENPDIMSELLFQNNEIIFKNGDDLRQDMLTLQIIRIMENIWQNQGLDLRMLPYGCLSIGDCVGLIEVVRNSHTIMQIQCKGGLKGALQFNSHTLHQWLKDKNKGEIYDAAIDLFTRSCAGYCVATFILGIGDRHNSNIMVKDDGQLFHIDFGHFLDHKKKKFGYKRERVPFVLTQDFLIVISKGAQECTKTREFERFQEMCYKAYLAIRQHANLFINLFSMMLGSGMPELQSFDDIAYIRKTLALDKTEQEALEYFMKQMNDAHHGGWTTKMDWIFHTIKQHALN
Sequence (P27986 whole entry partner): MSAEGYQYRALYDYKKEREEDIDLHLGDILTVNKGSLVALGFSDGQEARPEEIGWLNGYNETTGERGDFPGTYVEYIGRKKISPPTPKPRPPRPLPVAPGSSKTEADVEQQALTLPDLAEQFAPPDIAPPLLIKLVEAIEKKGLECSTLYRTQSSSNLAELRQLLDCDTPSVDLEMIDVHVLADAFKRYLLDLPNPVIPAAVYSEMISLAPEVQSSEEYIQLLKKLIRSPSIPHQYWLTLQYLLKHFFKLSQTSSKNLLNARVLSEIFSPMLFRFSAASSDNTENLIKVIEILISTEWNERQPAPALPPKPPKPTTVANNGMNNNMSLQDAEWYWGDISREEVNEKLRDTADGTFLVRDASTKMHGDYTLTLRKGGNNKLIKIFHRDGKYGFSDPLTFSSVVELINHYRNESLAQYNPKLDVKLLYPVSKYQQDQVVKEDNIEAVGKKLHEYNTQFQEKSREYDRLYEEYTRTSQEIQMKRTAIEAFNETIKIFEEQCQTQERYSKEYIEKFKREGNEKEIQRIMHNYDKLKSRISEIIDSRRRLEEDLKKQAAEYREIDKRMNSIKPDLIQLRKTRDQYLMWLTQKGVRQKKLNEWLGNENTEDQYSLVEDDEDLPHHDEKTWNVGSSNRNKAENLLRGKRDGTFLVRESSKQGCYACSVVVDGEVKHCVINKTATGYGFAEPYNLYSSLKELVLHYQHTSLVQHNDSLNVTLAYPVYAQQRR
Assay: Enzymatic activity assay for recombinant human PI3Kα (ADP-Glo)
Type: biochemical
Settings: 1.2 nM PI3Kα, 20 μM ATP, 80 μM DiC8-PIP2, ADP-Glo
With a cut-off of 70 nM, any IC50 strictly below it is called Yes; any IC50 meeting it or above is called No.

Answered examples (4):
• CNS(=O)(=O)c1cc(-c2sc(Nc3cccc(N4CC[C@H](O)C4=O)n3)nc2C)cc2c1C(=O)N([C@@H](C)C1CC1)C2 = Yes
• CNS(=O)(=O)c1cc(-c2sc(Nc3cccc(N4C(=O)CC[C@H]4CO)n3)nc2C)cc2c1C(=O)N([C@@H](C)C1CC1)C2 = Yes
• CC(=O)N(C)c1cccc(Nc2nc(C)c(-c3cc4c(c(S(C)(=O)=O)c3)C(=O)N([C@@H](C)C3CC3)C4)s2)n1 = No
• Cc1nc(Nc2cccc(N3Cc4ncccc4C3=O)n2)sc1-c1cc2c(c(S(C)(=O)=O)c1)C(=O)N([C@@H](C)C1CC1)C2 = No

Next up:
Take the molecule `Cc1nc(Nc2cccc(N3CCNCC3=O)n2)sc1-c1cc2c(c(S(C)(=O)=O)c1)C(=O)N([C@@H](C)C1CC1)C2` and say whether its IC50 is less than 70 nM.
No

Every entry's value here was drawn from patent US10961236B2.
